Target: human CD33 K312A (human, UniProt P20138 18-364)
Sequence (P20138 18-364 K312A limits assumed): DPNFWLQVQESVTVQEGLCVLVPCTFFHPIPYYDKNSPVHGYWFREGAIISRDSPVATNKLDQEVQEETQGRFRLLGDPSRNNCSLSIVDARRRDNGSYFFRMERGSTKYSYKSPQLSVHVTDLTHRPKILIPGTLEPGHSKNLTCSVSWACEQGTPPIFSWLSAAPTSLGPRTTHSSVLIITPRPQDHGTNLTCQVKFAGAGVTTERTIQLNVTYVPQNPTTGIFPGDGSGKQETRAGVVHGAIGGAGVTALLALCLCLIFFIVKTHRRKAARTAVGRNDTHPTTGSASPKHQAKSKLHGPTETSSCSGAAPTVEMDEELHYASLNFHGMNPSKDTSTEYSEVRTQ
Test details: alanine scan, flow cytometry, HEK293-T;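 also: antibody binding to each alanine-substituted CD33 mutant expressed transiently in HEK293-T, read as fluorescence minus background, mean of duplicates, relative to wild-type CD33 set as 100%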
Each entry below carries its reported Mean % WT Binding.
Remember to quote the unit after the number.

Some entries whose results are on file:
Binder	Endpoint value
Refmab #3 (antibody, V domains shown, The alanine scan used IgG or Fab) VH: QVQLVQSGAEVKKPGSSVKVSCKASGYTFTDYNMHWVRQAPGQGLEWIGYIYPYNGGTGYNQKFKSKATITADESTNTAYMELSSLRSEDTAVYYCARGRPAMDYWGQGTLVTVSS VL: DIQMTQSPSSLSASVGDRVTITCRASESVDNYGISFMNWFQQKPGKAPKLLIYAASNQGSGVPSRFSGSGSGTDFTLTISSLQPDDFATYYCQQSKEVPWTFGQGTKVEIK	99.6 % WT binding
Refmab #1 (antibody, V domains shown, The alanine scan used IgG or Fab; also called hP67.6) VH: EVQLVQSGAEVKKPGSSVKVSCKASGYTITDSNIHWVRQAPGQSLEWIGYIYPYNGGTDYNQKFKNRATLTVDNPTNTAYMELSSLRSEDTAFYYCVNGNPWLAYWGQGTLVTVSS VL: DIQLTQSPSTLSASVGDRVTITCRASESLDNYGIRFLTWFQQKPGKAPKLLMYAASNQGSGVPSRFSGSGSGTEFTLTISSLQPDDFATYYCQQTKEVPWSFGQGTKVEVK	83.8 % WT binding
Refmab #2 (antibody, V domains shown, The alanine scan used IgG or Fab) VH: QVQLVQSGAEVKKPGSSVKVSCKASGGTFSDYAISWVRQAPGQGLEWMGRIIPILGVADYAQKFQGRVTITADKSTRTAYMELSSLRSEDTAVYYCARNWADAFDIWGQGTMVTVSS VL: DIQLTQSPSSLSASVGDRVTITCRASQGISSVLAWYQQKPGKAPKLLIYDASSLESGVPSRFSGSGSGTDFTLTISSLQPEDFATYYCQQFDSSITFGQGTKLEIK	110 % WT binding

The record that follows has no Mean % WT Binding shown yet.
IN: Query: Mean % WT Binding; subject: Refmab #4 (antibody, V domains shown, The alanine scan used IgG or Fab) VH: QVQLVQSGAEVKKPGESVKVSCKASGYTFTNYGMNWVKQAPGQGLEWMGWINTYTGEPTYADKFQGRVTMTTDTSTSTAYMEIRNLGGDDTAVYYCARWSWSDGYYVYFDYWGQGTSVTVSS VL: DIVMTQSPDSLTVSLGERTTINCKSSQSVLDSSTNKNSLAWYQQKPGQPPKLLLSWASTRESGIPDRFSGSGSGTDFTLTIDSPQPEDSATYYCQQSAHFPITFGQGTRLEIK
OUT: 98.9 % WT binding
